- targetEntity: human ERα (Homo sapiens, UniProt P03372)
- experimentSummary: IL-6 expression (ELISA, ER/IL-6) in Ad5-wt-hERα infected HAECT-1 cells
- recordedConditions: efficacy relative to the maximal inhibition observed with E2
Class MET: ER/IL-6 % E2 at least 80 % E2. Class NOT MET: ER/IL-6 % E2 below 80 % E2.

- smi: "N#Cc1ccc(-n2nc(-c3ccc(O)cc3O)c3ccc(O)cc32)cc1"
  targetEntity: "human ERα (Homo sapiens, UniProt P03372)"
  classification: "MET"
- smi: "Oc1ccc(-c2nn(-c3ccc(OC(F)(F)F)cc3)c3cc(O)ccc23)c(O)c1"
  targetEntity: "human ERα (Homo sapiens, UniProt P03372)"
  classification: "MET"
- smi: "Oc1ccc(-c2nn(Cc3ccccc3)c3c(Cl)cccc23)c(O)c1"
  targetEntity: "human ERα (Homo sapiens, UniProt P03372)"
  classification: "NOT MET"
- smi: "Oc1ccc(-c2n[nH]c3cc(Cl)c(F)cc23)cc1"
  targetEntity: "human ERα (Homo sapiens, UniProt P03372)"
  classification: "NOT MET"
- smi: "COc1ccccc1-n1nc(-c2ccc(O)cc2O)c2ccc(O)cc21"
  targetEntity: "human ERα (Homo sapiens, UniProt P03372)"
  classification: "NOT MET"
- smi: "Cn1nc(-c2ccc(O)cc2)c2cccc(C(F)(F)F)c21"
  targetEntity: "human ERα (Homo sapiens, UniProt P03372)"
  classification: "NOT MET"
- smi: "Oc1ccc(-c2nn(-c3ccc(Br)cc3)c3cc(O)ccc23)c(O)c1"
  targetEntity: "human ERα (Homo sapiens, UniProt P03372)"
  classification: "NOT MET"
- smi: "Oc1ccc(-c2nn(-c3cccc(Br)c3)c3cc(O)ccc23)c(O)c1"
  targetEntity: "human ERα (Homo sapiens, UniProt P03372)"
  classification: "NOT MET"
- smi: "Oc1ccc(-c2nn(Cc3ccccc3)c3c(F)cccc23)cc1"
  targetEntity: "human ERα (Homo sapiens, UniProt P03372)"
  classification: "NOT MET"
- smi: "COc1ccc(-n2nc(-c3ccc(O)cc3O)c3ccc(O)cc32)cc1"
  targetEntity: "human ERα (Homo sapiens, UniProt P03372)"
  classification: "MET"

I'd appreciate it if you could say whether CCCCn1nc(-c2ccc(O)cc2)c2ccccc21 has ER/IL-6 % E2 at least equal to 80 % E2.
NOT MET

I'd appreciate it if you could say whether Cn1nc(-c2ccc(O)cc2)c2cccc(Cl)c21 has ER/IL-6 % E2 at least equal to 80 % E2.
NOT MET

I'd appreciate it if you could say whether Oc1ccc(-c2nn(-c3ccccc3Cl)c3cc(O)ccc23)c(O)c1 has ER/IL-6 % E2 at least equal to 80 % E2.
NOT MET

====

- targetEntity: human ERα (Homo sapiens, UniProt P03372)
- experimentSummary: Creatine kinase expression (ER/CK) in Ad5-wt-hERα infected HAECT-1 cells
- recordedConditions: efficacy relative to the maximal stimulation observed with E2
Below, each of the compounds is paired with its reported ER/CK % E2 value.
The reply should be a number in % E2, with the unit left off.

Answered examples (5):
- smi: "Cc1cccc2c(-c3ccc(O)cc3)nn(C(C)C)c12"
  targetEntity: "human ERα (Homo sapiens, UniProt P03372)"
  result: 46
- smi: "Oc1ccc(-c2n[nH]c3ccccc23)cc1"
  targetEntity: "human ERα (Homo sapiens, UniProt P03372)"
  result: 54
- smi: "CC(C)n1nc(-c2ccc(O)cc2)c2cccc(-c3ccc(O)c(O)c3)c21"
  targetEntity: "human ERα (Homo sapiens, UniProt P03372)"
  result: 32
- smi: "CCCn1nc(-c2ccc(O)cc2)c2cccc(F)c21"
  targetEntity: "human ERα (Homo sapiens, UniProt P03372)"
  result: 31
- smi: "Cc1cc(O)ccc1-c1nn(C2CCCC2)c2c(-c3ccc(O)c(O)c3)cccc12"
  targetEntity: "human ERα (Homo sapiens, UniProt P03372)"
  result: 38

Report ER/CK % E2, nothing else, for this compound: Oc1ccc(-c2nn(-c3ccc(Br)cc3)c3cc(O)ccc23)c(O)c1
54

Report ER/CK % E2, nothing else, for this compound: OCCn1nc(-c2ccc(O)cc2)c2cccc(F)c21
31

====

- targetEntity: human ERα (Homo sapiens)
- Sequence (P03372 1-595): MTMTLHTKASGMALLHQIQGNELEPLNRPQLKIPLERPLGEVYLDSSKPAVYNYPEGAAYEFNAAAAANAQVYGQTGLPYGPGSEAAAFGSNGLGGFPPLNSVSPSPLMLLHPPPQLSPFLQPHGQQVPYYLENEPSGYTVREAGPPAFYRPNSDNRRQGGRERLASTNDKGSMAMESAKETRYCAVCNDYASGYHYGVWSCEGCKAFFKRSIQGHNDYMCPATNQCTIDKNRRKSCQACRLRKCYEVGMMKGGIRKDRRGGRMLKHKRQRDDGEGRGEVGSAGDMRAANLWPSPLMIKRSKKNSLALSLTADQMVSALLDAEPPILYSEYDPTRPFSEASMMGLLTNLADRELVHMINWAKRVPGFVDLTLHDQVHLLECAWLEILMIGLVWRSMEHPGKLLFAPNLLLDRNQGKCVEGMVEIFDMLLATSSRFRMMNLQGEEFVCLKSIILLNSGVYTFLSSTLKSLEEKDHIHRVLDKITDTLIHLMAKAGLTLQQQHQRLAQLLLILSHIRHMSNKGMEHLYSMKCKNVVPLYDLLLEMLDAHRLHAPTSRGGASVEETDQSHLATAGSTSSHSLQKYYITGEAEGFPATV
- experimentSummary: NF-κB luciferase reporter (ER/NF-KB-luc) in Ad5-wt-hERα infected HAECT-1 cells
- recordedConditions: ER/NF-KB-luc IC50, Ad5-wt-ER infected HAECT-1 cells, IL-1β
1 (yes) if IC50 is below 300 nM. 0 (no) if not; exact matches included in 0 (no).

- smi: "Oc1ccc(-c2nn(C3CCCC3)c3c(-c4ccc(C(F)(F)F)cc4)cccc23)cc1"
  classification: "0 (no)"
- smi: "CCCCn1nc(-c2ccc(O)cc2)c2ccccc21"
  classification: "1 (yes)"
- smi: "CCCn1nc2c(Cl)cccc2c1-c1ccc(O)cc1C"
  classification: "1 (yes)"

Here is another compound to look at.
Below 300 nM on IC50? Entry Cc1cc(-c2nn(C3CCCC3)c3c(F)cccc23)ccc1O
0 (no)

====

Below, each of the compounds is paired with its reported IC50 value.
- targetEntity: human ERα (Homo sapiens, UniProt P03372)
- experimentSummary: IL-6 expression (ELISA, ER/IL-6) in Ad5-wt-hERα infected HAECT-1 cells
Give the number first and the unit second.

Answered examples (5):
- smi: "Oc1ccc(-c2nn(-c3ccc(OC(F)(F)F)cc3)c3cc(O)ccc23)c(O)c1"
  IC50: "601 nM"
- smi: "COc1ccccc1-n1nc(-c2ccc(O)cc2O)c2ccc(O)cc21"
  IC50: "7610 nM"
- smi: "Oc1ccc(-c2nn(-c3ccccc3Cl)c3cc(O)ccc23)c(O)c1"
  IC50: "81 nM"
- smi: "Cn1nc(-c2ccc(O)cc2)c2cccc(C(F)(F)F)c21"
  IC50: "65 nM"
- smi: "Oc1ccc(-c2nn(Cc3ccccc3)c3c(F)cccc23)cc1"
  IC50: "97 nM"

Report IC50, nothing else, for this compound: CCCCn1nc(-c2ccc(O)cc2)c2ccccc21
329 nM

Report IC50, nothing else, for this compound: N#Cc1ccc(-n2nc(-c3ccc(O)cc3O)c3ccc(O)cc32)cc1
8130 nM

Report IC50, nothing else, for this compound: Oc1ccc(-c2nn(-c3cccc(Br)c3)c3cc(O)ccc23)c(O)c1
761 nM

Report IC50, nothing else, for this compound: Cn1nc(-c2ccc(O)cc2)c2cccc(Cl)c21
122 nM

====

- targetEntity: human ERα (Homo sapiens)
- experimentSummary: Creatine kinase expression (ER/CK) in Ad5-wt-hERα infected HAECT-1 cells
- recordedConditions: efficacy relative to the maximal stimulation observed with E2
propertyLabel: ER/CK % E2 (% E2)
The reply should be a number in % E2, with the unit left off.

Answered examples (8):
- molecule: "Oc1ccc(-c2nn(Cc3ccccc3)c3ccc(C(F)(F)F)cc23)c(O)c1 [Example 182]"
  targetEntity: "human ERα (Homo sapiens)"
  ER/CK % E2, % E2: 71
- molecule: "CCCCCn1nc(-c2ccc(O)cc2O)c2cccc(C(F)(F)F)c21 [Example 73]"
  targetEntity: "human ERα (Homo sapiens)"
  ER/CK % E2, % E2: 19
- molecule: "CC(C)n1nc(-c2ccc(O)cc2O)c2cccc(C(F)(F)F)c21 [Example 65]"
  targetEntity: "human ERα (Homo sapiens)"
  ER/CK % E2, % E2: 42
- molecule: "CC(C)n1nc(-c2ccc(O)cc2O)c2cccc(F)c21 [Example 87]"
  targetEntity: "human ERα (Homo sapiens)"
  ER/CK % E2, % E2: 24
- molecule: "CC(C)(C)OC(=O)NCC(=O)NCC(=O)Oc1ccc(-c2nn(C3CCCC3)c3c(F)cccc23)cc1 [Example 116]"
  targetEntity: "human ERα (Homo sapiens)"
  ER/CK % E2, % E2: 25
- molecule: "Oc1ccc(-c2c3cccc(Cl)c3nn2C2CCCC2)cc1 [Example 52]"
  targetEntity: "human ERα (Homo sapiens)"
  ER/CK % E2, % E2: 27
- molecule: "C=CCn1nc2c(C(F)(F)F)cccc2c1-c1ccc(O)cc1O [Example 75]"
  targetEntity: "human ERα (Homo sapiens)"
  ER/CK % E2, % E2: 48
- molecule: "Cc1cc(O)ccc1-c1nn(C(C)C)c2c(F)cccc12 [Example 91]"
  targetEntity: "human ERα (Homo sapiens)"
  ER/CK % E2, % E2: 24

Report ER/CK % E2, nothing else, for this molecule: OCCn1nc(-c2ccc(O)cc2O)c2cc(F)ccc21 [Example 192]
51
